- Assay System: T1, anti-target CRF1R receptor (UniProt P34998 24-415, limits assumed)
- T1 sequence (looked up): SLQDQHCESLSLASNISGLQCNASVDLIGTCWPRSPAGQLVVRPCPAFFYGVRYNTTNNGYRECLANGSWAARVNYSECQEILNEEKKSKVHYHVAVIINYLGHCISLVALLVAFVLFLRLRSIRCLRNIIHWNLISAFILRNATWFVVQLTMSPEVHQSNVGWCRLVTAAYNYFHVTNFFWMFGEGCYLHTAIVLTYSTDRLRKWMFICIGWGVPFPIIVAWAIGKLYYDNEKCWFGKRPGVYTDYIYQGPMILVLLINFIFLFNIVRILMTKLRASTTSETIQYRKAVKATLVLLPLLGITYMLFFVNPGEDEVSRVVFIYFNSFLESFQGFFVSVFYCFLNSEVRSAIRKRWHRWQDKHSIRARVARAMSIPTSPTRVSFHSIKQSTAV
- Assay Explanation: cell-based or functional assay
Starred links: 1 amine or outer side, 2 acyl side, 3 side chain; linkers in the order of their positions; H or OH if unused. Non-standard residues stand in square brackets, D forms with d. Groups on a side chain read outwards from the residue. No end group written: not given here. *: point of attachment. C20 diacid = O=C(O)CCCCCCCCCCCCCCCCCCC(=O)*; γGlu = O=C(O)[C@H](CCC(=O)[*:2])N[*:1]; Palmitoyl = CCCCCCCCCCCCCCCC(=O)*; AEEA = NCCOCCOCC(=O)O
Parameter: Emax (%) (cAMP, CRF1R-overexpression CHO cells)

Binder: FTLSLDVPIKLK([AEEA-AEEA-γGlu-C20 diacid])QILLKQQKQKKERQQAETNVQLLERV-NH2 [peptide of SEQ ID NO: 62]
Recorded Measurement: 2.28
//
Binder: IVLSLD[dV]PTKLK([γGlu-Palmitoyl])QKLLKQERQRKEREQAEKNVRILERV-NH2 (not fully specified; printed as IVLSLDvPTKLK*QKLLKQERQRKEREQAEKNVRILERV-NH2) [peptide of SEQ ID NO: 32]
Recorded Measurement: 27
//
Binder: FTLSLDVPTKIK([AEEA-AEEA-γGlu-C20 diacid])QILFKQQKQKKERQQAEKNKQLLEQI-NH2 [peptide of SEQ ID NO: 58]
Recorded Measurement: 9.12
//
Binder: FTLSLDVPIKLK([AEEA-AEEA-γGlu-C20 diacid])QILLEQQKQKKERQQAETNVQLLERV-NH2 [peptide of SEQ ID NO: 63]
Recorded Measurement: 4.68
//
Binder: FTLSLDVPTKIK([AEEA-AEEA-γGlu-C20 diacid])QILLKQQKQKKERQQAETNKQLLERV-NH2 [peptide of SEQ ID NO: 61]
Recorded Measurement: 3.31
//
Binder: FTLSLDVPTKIK([AEEA-AEEA-γGlu-C20 diacid])QILLKQQKQKKERQQAEKNKQLLERV-NH2 [peptide of SEQ ID NO: 60]
Recorded Measurement: 4.84
//
Binder: FTLSLDVPTKIK([AEEA-AEEA-γGlu-C20 diacid])QILLKQQKQKKERQQAEKNKQLLEQI-NH2 [peptide of SEQ ID NO: 59]
Recorded Measurement: 11.1
//
Binder: IVLSLD[dV]PTKLK([γGlu-Palmitoyl])QKLLKQERQRKEREQAEKNARILARV-NH2 (not fully specified; printed as IVLSLDvPTKLK*QKLLKQERQRKEREQAEKNARILARV-NH2) [peptide of SEQ ID NO: 7]
Recorded Measurement: 58.6
